Test system: OVCAR-3 ovarian
Test: NCI-60 one-dose screen, 48 h (100 = growth as untreated, 0 = no growth, -100 = all killed)
Settings: 10 µM unless noted
Compounds without any hit were thinned out: in the full panel of roughly 83,000, 20% have a hit.
# reported growth; entries follow
Please state the figure in %; there is no need to write the unit.

molecule | readout | resultUnit | endpointResult
C/C(=C(/c1ccc(O)cc1)c1ccc(OCCN2CCCC2)cc1)c1ccccc1 | growth | % | 74

Field request: growth | item: COc1ncc(-c2ccc3ncnc(Nc4cccc(Cl)c4)c3c2)cc1NS(C)(=O)=O
26.9

Field request: growth | item: Oc1ccccc1N=Cc1c(O)ccc2ccccc12
64.2

Field request: growth | item: CCN(CC)CC(O)c1cc(-c2ccc(Cl)cc2)nc2c(C)c(Cl)ccc12 (stereo not given)
-100

Field request: growth | item: CC/C=C\C[C@H](O)C/C=C1/C(=O)C=C[C@@H]1C/C=C\CCCC(N)=O
3.26

Field request: growth | item: COc1ccc(/C=c2/c(=O)[nH]c3nc4sc(C)c(C)c4c(=O)n23)cc1
101

Field request: growth | item: O=C(/C=C/c1cc2ccccc2[nH]c1=O)/C=C/c1cc2ccccc2[nH]c1=O
-58

Field request: growth | item: Cc1ccc(Nc2c(C(N)=O)cnc3ccc(-c4csc(N)n4)cc23)cc1
108

Field request: growth | item: Cc1ccc(SCN2CCN(c3cccc(Cl)c3)CC2)cc1
106

Field request: growth | item: CCCNc1nc(SC)nc(-c2cccc(N)c2)c1C#N
110
